meta.source: the NIST ThermoML archive (doi:10.1021/je700266n)

This section presents compounds with their documented mass density values.
condition-context: 293.15 K; 101 kPa; Liquid
quantity-measured: mass density (kg/m3)

- compound: "CC#N"
  quantity-measured: "mass density"
  observed-value: 782.3
- compound: "c1ccccc1"
  quantity-measured: "mass density"
  observed-value: 878.23
- compound: "CCCCn1cc[n+](C)c1.F[B-](F)(F)F [1-butyl-3-methylimidazolium tetrafluoroborate]"
  quantity-measured: "mass density"
  observed-value: 1195.71
- compound: "CCCO"
  quantity-measured: "mass density"
  observed-value: 804.97
- compound: "CCCCn1cc[n+](C)c1.F[P-](F)(F)(F)(F)F [1-butyl-3-methylimidazolium hexafluorophosphate]"
  quantity-measured: "mass density"
  observed-value: 1371.57
